resultType: melting point

Here is how some compounds turned out for melting point.
- compound: "O=C(O)Cc1ccc2c(c1)CC(CCNS(=O)(=O)c1ccc(Cl)cc1)C2 (configuration not stated)"
  resultType: "melting point"
  endpointValue: "146 to 147 °C"
- compound: "CCOC(=O)C1=C(C(=O)OCC)SCCS1"
  resultType: "melting point"
  endpointValue: "32 to 36 °C"
- compound: "O=S(CCCCOc1ccc(C2=C(c3ccccc3)CCCc3cc(O)ccc32)cc1)CCCC(F)(F)C(F)(F)F (configuration not stated)"
  resultType: "melting point"
  endpointValue: "155 °C"
- compound: "COc1ccc2[nH]ccc(=O)c2c1OCc1ccccc1"
  resultType: "melting point"
  endpointValue: "171 to 172 °C"
- compound: "CN(C)C1(C#N)CCCCC1"
  resultType: "melting point"
  endpointValue: "36 °C"

The record that follows has no melting point shown yet.
For CCNc1ccc(S(=O)(=O)Nc2onc(C)c2C)cc1 , what is its reported melting point?
123 °C
